# Target Or System: Na+,K+-ATPase (Canis lupus familiaris)
# Construct: Na^+,K^+ -ATPase receptor purified according to Jorghensen
# Assay Info: displacement of the specific 3H-ouabain binding from the Na+,K+-ATPase receptor
# Particulars: displacement of specific 3H-ouabain binding, purified enzyme
Readout Label: EC50 (nM)
Enter your answer as a number in nM; do not include the unit.

Given item "CN(C)CCO/N=C/C=C1\CC[C@@]2(C)[C@H](C1)C(=O)C[C@@H]1[C@@H]2CC[C@]2(C)C(=O)CC[C@@H]12" , the value recorded as its EC50 is 320

Given item "CN(C)CCO/N=C\[C@H]1CC[C@@]2(C)[C@H](C1)[C@@H](O)C[C@@H]1[C@@H]2CC[C@]2(C)[C@@H](O)CC[C@@H]12" , the value recorded as its EC50 is 160

Given item "CN(C)CCCO[C@H]1CC[C@@]2(C)[C@H](C1)C(=O)C[C@@H]1[C@@H]2CC[C@]2(C)C(=O)CC[C@@H]12" , the value recorded as its EC50 is 1300

Given item "C[C@]12CCC(=NOCCN)C[C@@H]1C(=O)C[C@@H]1[C@@H]2CC[C@]2(C)C(=O)CC[C@@H]12" , the value recorded as its EC50 is 20

Given item "C[C@]12CCC(=NOCCN)C[C@@H]1[C@@H](O)C[C@@H]1[C@@H]2CC[C@]2(C)[C@@H](O)CC[C@@H]12" , the value recorded as its EC50 is 100

Given item C[C@]12CC[C@H](/C=N\OCCN)C[C@@H]1[C@@H](O)C[C@@H]1[C@@H]2CC[C@]2(C)[C@@H](O)CC[C@@H]12.O=C(O)C(=O)O [I-d, oxalate] , the value recorded as its EC50 is 130

Given item "CN(C)CCO/N=C1/CC[C@@]2(C)[C@H](C1)C(=O)C[C@@H]1[C@@H]2CC[C@]2(C)C(=O)CC[C@@H]12" , the value recorded as its EC50 is 500

Given item "CN(C)CCO/N=C/C=C1\CC[C@@]2(C)[C@H](C1)[C@@H](O)C[C@@H]1[C@@H]2CC[C@]2(C)[C@@H](O)CC[C@@H]12" , the value recorded as its EC50 is 100

###

# Assay Info: acute toxicity mouse oral
# Particulars: in vivo
Readout Label: LD50 (mg/kg)
Enter your answer as a number in mg/kg; do not include the unit.

Given item C[C@H]1O[C@@H](O[C@H]2[C@@H](O)C[C@H](O[C@H]3[C@@H](O)C[C@H](O[C@H]4CC[C@@]5(C)[C@H](CC[C@@H]6[C@@H]5C[C@@H](O)[C@]5(C)[C@@H](C7=CC(=O)OC7)CC[C@]65O)C4)O[C@@H]3C)O[C@@H]2C)C[C@H](O)[C@@H]1O [Digoxin, reference compound] , the value recorded as its LD50 is 18

Given item "CN(C)CCO/N=C/C=C1\CC[C@@]2(C)[C@H](C1)[C@@H](O)C[C@@H]1[C@@H]2CC[C@]2(C)[C@@H](O)CC[C@@H]12" , the value recorded as its LD50 is 560

###

# Assay Info: acute toxicity mouse oral
# Particulars: in vivo
I'd appreciate it if you could supply LD50 values for the items below.

Given item "CN(C)CCO/N=C/C=C1\CC[C@@]2(C)[C@H](C1)C(=O)C[C@@H]1[C@@H]2CC[C@]2(C)C(=O)CC[C@@H]12" , the value recorded as its LD50 is > 600 mg/kg

Given item "CN(C)CCCO[C@H]1CC[C@@]2(C)[C@H](C1)C(=O)C[C@@H]1[C@@H]2CC[C@]2(C)C(=O)CC[C@@H]12" , the value recorded as its LD50 is > 1000 mg/kg

Given item "C[C@]12CCC(=NOCCN)C[C@@H]1[C@@H](O)C[C@@H]1[C@@H]2CC[C@]2(C)[C@@H](O)CC[C@@H]12" , the value recorded as its LD50 is > 600 mg/kg

Given item "C[C@]12CCC(=NOCCN)C[C@@H]1C(=O)C[C@@H]1[C@@H]2CC[C@]2(C)C(=O)CC[C@@H]12" , the value recorded as its LD50 is 520 mg/kg
